target.under.test: HLA-A*02:01 (Homo sapiens, UniProt P04439, D140Y/D185E/D98H/E176V/E277Q/G131W/G231S/I119V/I121R/I166T/I218V/L300P/L318F/N151K/N90K/P208A/P217A/Q86G/Q94H/R138H/R169H/T345S)
assay.details: MHC binding assay: UV-ligand exchange with β2m ELISA (peptide exchange yield)
details: binding to HLA-A*02:01 evaluated by peptide exchange yield (UV-ligand exchange, β2m ELISA)
value.type: Peptide exchange

Examples with answers:
- substance: "277 (KLQEELNKV; listed as Homo sapiens) [compound 277]"
  Peptide exchange: "+++ (≥50 = +++)"
- substance: "109 (ILGSFELQL; listed as Homo sapiens) [compound 109]"
  Peptide exchange: "+++ (≥50 = +++)"
- substance: "62 (SLVENIHVL; listed as Homo sapiens) [compound 62]"
  Peptide exchange: "+++ (≥50 = +++)"
- substance: "129 (KMASKVTQV; listed as Homo sapiens) [compound 129]"
  Peptide exchange: "++ (≥20% = ++)"
- substance: "224 (LLFDWSGTGRADA; listed as Homo sapiens) [compound 224]"
  Peptide exchange: "+++ (≥50 = +++)"
- substance: "254 (ALGDKFLLRV; listed as Homo sapiens) [compound 254]"
  Peptide exchange: "++ (≥20% = ++)"
- substance: "54 (YLVPGLVAA; listed as Homo sapiens) [compound 54]"
  Peptide exchange: "+++ (≥50 = +++)"
- substance: "222 (LLTGVFAQL; listed as Homo sapiens) [compound 222]"
  Peptide exchange: "++ (≥20% = ++)"

I would be grateful if you could share the reported Peptide exchange for 119 (SLIEESEEL; listed as Homo sapiens) [compound 119] . ++ (≥20% = ++)

I would be grateful if you could share the reported Peptide exchange for 199 (SVADLAHVL; listed as Homo sapiens) [compound 199] . ++ (≥20% = ++)

I would be grateful if you could share the reported Peptide exchange for 183 (ALSYILPYL; listed as Homo sapiens) [compound 183] . +++ (≥50 = +++)
